- Tested on: E. coli JJ2487
- Assay type: cell-based
- CONDITION_DETAILS: JJ2487, 1 h
No end group written: not given here.
Provide the reported MIC E. coli JJ2487 of each item.

Worked cases, answers included:
1. VDKKPYKPRPRPPRRIYNR-NH2 [VDKKPYKPRPRPPRRIYNR-NH2] :: 0.30 ± 0.07 µg/mL
2. VDKPPYLPRPRPPRRIYNR-NH2 [VDKPPYLPRPRPPRRIYNR-NH2, reference compound] :: 0.60 ± 0.14 µg/mL
3. VDKPPYRPRPRPPRRIYNR-NH2 [VDKPPYRPRPRPPRRIYNR-NH2] :: 0.39 ± 0.18 µg/mL
4. VDKKPYRPRPRPPRRIYNR-NH2 [VDKKPYRPRPRPPRRIYNR-NH2] :: 0.30 ± 0.07 µg/mL
5. VDKKPYLPRPRPPRRIYNR-NH2 [VDKKPYLPRPRPPRRIYNR-NH2] :: 0.60 ± 0.14 µg/mL
6. VDKRPYLPRPRPPRRIYNR-NH2 [VDKRPYLPRPRPPRRIYNR-NH2] :: 0.39 ± 0.18 µg/mL

For each of the items listed, what is its MIC E. coli JJ2487?
1. VDKPPYKPRPRPPRRIYNR-NH2 [VDKPPYKPRPRPPRRIYNR-NH2]
2. VDKRPYRPRPRPPRRIYNR-NH2 [VDKRPYRPRPRPPRRIYNR-NH2]

["0.79 ± 0.35 µg/mL", "0.42 ± 0.21 µg/mL"]
